- Experimental Details: Recovery of ginsenosides from urine and feces for 48 h after RGE, amoxicillin with or without LAB
- Details: feces 48 h after single oral RGE 2 g/kg; Amoxicillin + LAB vs amoxicillin
Endpoint Name: Fecal recovery, change by LAB treatment

Some entries whose results are on file:
[
  {
    "Molecule": "CC(C)=CCC[C@](C)(O[C@@H]1O[C@H](CO)[C@@H](O)[C@H](O)[C@H]1O)[C@H]1CC[C@]2(C)[C@@H]1[C@H](O)C[C@@H]1[C@@]3(C)CC[C@H](O[C@@H]4O[C@H](CO)[C@@H](O)[C@H](O)[C@H]4O)C(C)(C)[C@@H]3CC[C@]12C",
    "Value Reported": "remained similar"
  },
  {
    "Molecule": "CC(C)=CCC[C@](C)(O[C@@H]1O[C@H](CO[C@@H]2O[C@H](CO)[C@@H](O)[C@H](O)[C@H]2O)[C@@H](O)[C@H](O)[C@H]1O)[C@H]1CC[C@]2(C)[C@@H]1[C@H](O)C[C@@H]1[C@@]3(C)CC[C@H](O[C@@H]4O[C@H](CO)[C@@H](O)[C@H](O)[C@H]4O[C@@H]4O[C@H](CO)[C@@H](O)[C@H](O)[C@H]4O)C(C)(C)[C@@H]3CC[C@]12C [GRb1, 20(S)-ginsenosides Rb1]",
    "Value Reported": "significantly decreased"
  },
  {
    "Molecule": "CC(C)=CCC[C@](C)(O)[C@H]1CC[C@]2(C)[C@@H]1[C@H](O)C[C@@H]1[C@@]3(C)CC[C@H](O)C(C)(C)[C@@H]3[C@@H](O)C[C@]12C [PPT, 20(S)-protopanaxatriol]",
    "Value Reported": "significantly increased"
  },
  {
    "Molecule": "CC(C)=CCC[C@](C)(O)[C@H]1CC[C@]2(C)[C@@H]1[C@H](O)C[C@@H]1[C@@]3(C)CC[C@H](O[C@@H]4O[C@H](CO)[C@@H](O)[C@H](O)[C@H]4O)C(C)(C)[C@@H]3CC[C@]12C",
    "Value Reported": "remained similar"
  },
  {
    "Molecule": "CC(C)=CCC[C@](C)(O[C@@H]1O[C@H](CO)[C@@H](O)[C@H](O)[C@H]1O)[C@H]1CC[C@]2(C)[C@@H]1[C@H](O)C[C@@H]1[C@@]3(C)CC[C@H](O[C@@H]4O[C@H](CO)[C@@H](O)[C@H](O)[C@H]4O[C@@H]4O[C@H](CO)[C@@H](O)[C@H](O)[C@H]4O)C(C)(C)[C@@H]3CC[C@]12C",
    "Value Reported": "significantly decreased"
  }
]

Query block: Find the recorded Fecal recovery, change by LAB treatment belonging to "CC(C)=CCC[C@](C)(O[C@@H]1O[C@H](CO)[C@@H](O)[C@H](O)[C@H]1O)[C@H]1CC[C@]2(C)[C@@H]1[C@H](O)C[C@@H]1[C@@]3(C)CC[C@H](O)C(C)(C)[C@@H]3[C@@H](O)C[C@]12C" and report it.
Result block: remained similar

Query block: What value of Fecal recovery, change by LAB treatment has been reported for the following molecule? "CC(C)=CCC[C@](C)(O[C@@H]1O[C@H](CO[C@@H]2OC[C@H](O)[C@H](O)[C@H]2O)[C@@H](O)[C@H](O)[C@H]1O)[C@H]1CC[C@]2(C)[C@@H]1[C@H](O)C[C@@H]1[C@@]3(C)CC[C@H](O[C@@H]4O[C@H](CO)[C@@H](O)[C@H](O)[C@H]4O[C@@H]4O[C@H](CO)[C@@H](O)[C@H](O)[C@H]4O)C(C)(C)[C@@H]3CC[C@]12C"
Result block: significantly decreased

Query block: Given the entry CC(C)=CCC[C@](C)(O[C@@H]1O[C@H](CO)[C@@H](O)[C@H](O)[C@H]1O)[C@H]1CC[C@]2(C)[C@@H]1[C@H](O)C[C@@H]1[C@@]3(C)CC[C@H](O)C(C)(C)[C@@H]3CC[C@]12C [CK, 20(S)-compound K] , report its measured Fecal recovery, change by LAB treatment.
Result block: significantly increased
